# TARGET ENTITY: recombinant human FGFR1 catalytic domain (amino acids 308-731) (Homo sapiens (Human), UniProt P11362)
# Sequence (P11362 other isoform, or with tags, fused parts or gaps): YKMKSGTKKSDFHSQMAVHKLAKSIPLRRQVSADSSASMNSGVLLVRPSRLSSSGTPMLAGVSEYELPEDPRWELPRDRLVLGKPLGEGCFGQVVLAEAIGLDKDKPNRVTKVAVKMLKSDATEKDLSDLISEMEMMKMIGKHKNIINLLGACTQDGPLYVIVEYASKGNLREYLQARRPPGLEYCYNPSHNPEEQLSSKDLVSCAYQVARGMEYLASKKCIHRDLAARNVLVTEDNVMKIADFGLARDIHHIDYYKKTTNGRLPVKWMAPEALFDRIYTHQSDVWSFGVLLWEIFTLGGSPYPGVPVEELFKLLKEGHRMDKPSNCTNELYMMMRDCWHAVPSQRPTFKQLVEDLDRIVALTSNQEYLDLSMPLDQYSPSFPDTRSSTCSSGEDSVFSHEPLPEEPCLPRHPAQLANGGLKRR
# ASSAY: FGFR1 enzyme activity assay (LanthaScreen TR-FRET)
# CONDITION INFO: 20 min incubation at 22° C., average of multiple determinations if made, read-out: FGFR1 Enz FRET IC50
Each entry below carries its recorded IC50.
Report the figure in nM without appending any unit label.

Consider the worked cases shown below.
[[record]]
compound = "C=CC(=O)N1CC(C(=O)N2C3CC2CN(c2ccc(-c4cc(OC)c5c(C#N)cnn5c4)cn2)C3)C1"
readout_type = "IC50"
assay_value = 66

[[record]]
compound = "C=CC(=O)N1CCC(n2cc(-c3cc(OC)c4c(C#N)cnn4c3)cn2)CC1"
readout_type = "IC50"
assay_value = 22

[[record]]
compound = "C=CC(=O)N1CC(C(=O)N2C[C@@H]3C[C@H]2CN3c2ccc(-c3cc(OC)c4c(C#N)cnn4c3)cn2)C1"
readout_type = "IC50"
assay_value = 61


Let me know recorded IC50 for C=CC(=O)N1CCC(C#N)(C(=O)N2CCC(n3cc(-c4cc(OC)c5c(C#N)cnn5c4)cn3)CC2)C1 (stereo not shown) , thanks.
8
